system: SW-620 colon; test: NCI-60 one-dose screen, 48 h (100 = growth as untreated, 0 = no growth, -100 = all killed); conditions: 10 µM unless noted
Compounds without any hit were thinned out: in the full panel of roughly 83,000, 20% have a hit. Active and inactive are the calls of the source. The calls were made as follows: active = growth percent below 10; inactive = the rest.
growth: recorded values

COMPOUND: COc1cc2oc(-c3cccc(NC(=O)[C@H](Cc4ccccc4)NC(=O)OC(C)(C)C)c3)cc(=O)c2c(OC)c1OC
growth: 43.3% (inactive)

Quick one: growth for COc1ccc(C(=O)/C=C/c2ccc(OC)c(OCc3ccccc3)c2)cc1OC ?
9.63% (active)

Which growth value belongs to COc1ccc(NC(=O)Nc2ccc(OCc3ccc(F)cc3)cc2)cc1 ?
73.6% (inactive)

Source listed as PubChem BioAssay (NCI).
